Test: Cell viability assay (CCK-8)
Type: cell-based, human
Details: human
experimentalEndpoint: viability at 24 h, 10 µM (%)
Report only the number, with the unit % understood.

Return viability at 24 h, 10 µM (reported value) for this molecule: CC(C)=CCc1c(O)cc2oc3cc(O)c(O)c(CC=C(C)C)c3c(=O)c2c1O [γ-mangostin]
80

* * *

Test system: MDA-MB-231 cells
Experiment: Cell viability assay (CCK-8)
Assay type: cell-based, human
Conditions: Homo sapiens; MDA-MB-231 cells, 24 hours, CCK-8 assay, triplicate ± SD
Procedure: The MDA-MB-231 breast cancer cells were cultured in an L-15 medium, enriched with 15% fetal bovine serum (FBS) (Gibco, USA) and 1% penicillin-streptomycin (Gibco, USA), and incubated in CO2-free 37°C incubator. The compounds γ-mangostin (#M6824) and α-mangostin (#M3824) were purchased from Sigma-Aldrich (USA). A suspension of cells (20,000 cells/well in 100 μL) was cultured in a 96-well plate. […] The absorbance was subsequently read at 450 nm using a microplate reader ([26]). […]
experimentalEndpoint: pIC50
# pIC50: negative log10 of molar concentration; output just the value

Return pIC50 (reported value) for this compound: COc1c(O)cc2oc3cc(O)c(CC=C(C)C)c(O)c3c(=O)c2c1CC=C(C)C
4.70

* * *

Assay: Cell viability assay (CCK-8)
Type: cell-based, human
Conditions: human, MDA-MB-231 breast cancer cells; MDA-MB-231 cells, concentration below 10 µM, 24 hours
experimentalEndpoint: viability at 24 h

Return viability at 24 h (reported value) for this molecule: COc1c(O)cc2oc3cc(O)c(CC=C(C)C)c(O)c3c(=O)c2c1CC=C(C)C [α-mangostin]
80 to 90%
